ASSAY DETAILS: yeast display, Sf9 membrane polyspecificity reagent, FACS + sequencing; frameworks hold sequencing errors
QUANTITY MEASURED: polyreactivity (PSR sort gate)

Some sequences with recorded polyreactivity (PSR sort gate):
- QVQLVESGGGLVQAGGSLRLSCAASGSIWHKAMGWYRQAPGKERELVASSTNYADSVKGRITISRDNAKNTVYLQMNSLKPEDTAVYYCALEQGVNRNHDYWGQGTQVTVSS: low polyreactivity
- QVQLVESGGGLVQAGGSLRLSCASSGITFPFYTMGWYRQAPGKERELVAAISSRGTSTYYADSVKGRFTISRDNAKNTVYLQMNSLKPEDTAVYYCKARATPQRAYDSWGQGTQVTVSS: high polyreactivity
- QVQLVESGGGLVQAGGSLRLSCAASGIIFQDNAMGWYRQAPGKERELVATIDRGGDTYYADSVKGRFTISRDNAKNTVYLQMNSLKPEDTAVYYCAAVEFELRGDYWGQGTQVTVSS: low polyreactivity
- QVQLVESGGGLVQAGVSLRLSCAASGRTFSYYVMGWYRQAPGKETELVAAITTRTSSTYYADSVKGRFTISRDNAKNTVYLQMNSLKPEDTAVYYCARRPRARAYNYWGQGTQVTVSS: high polyreactivity

Q. For the sequence "QVQQVESGGGLVQAGVSLRLSCPASGLTFYTNPRGWYRQAPGKERELVAAIRRRGGRTYYADSVKGRFTISRDNATNSVYLQMNSLKPEDTAVSYCAADYSTLYNYDYWGQGTQVTVSS" , what polyreactivity (PSR sort gate) is on record?
A. low polyreactivity

---

ASSAY DETAILS: yeast display, Sf9 membrane polyspecificity reagent, FACS + sequencing; frameworks hold sequencing errors
QUANTITY MEASURED: polyreactivity (PSR sort gate)

Some sequences with recorded polyreactivity (PSR sort gate):
- QVQLVDSGGGLGQVGGSRRVSCAASGRTFWWYPMGWYRQSPGKERELVAAISRGSTNYADSVKGRFAISRDNAKNTVYLQMNSQKPEDTAVYYCAAYVVWLYGYDYGGQGTQVTVSS: low polyreactivity
- QVQLVESGGGLVQAGGSLRLSCAASGSIFDVNTMGWYSQAPGKERELVAGITSRGGSTYYADSVKGRFTISRDNAKNTVYLQMNSLKPEDTAVYYCAKRAYGTALYRGYGYWGQGTQVTVSS: low polyreactivity
- QVQLVESGGGLVQAGGSLRLSCAASGSIFTYNGMGWYRQAPGKEREFVAAITWTGGSTYADSVKGRFTISRDNAKNTVYLQMNSLKPEDTAVYYCAAVRRISWYTPVNTRRYYYWGQGTQVTVSS: high polyreactivity
- QVQLVESGGGLVQAGGSLRLSCAASGFIFSRYAMGWYRQAPGKERELVAYITRRGGRTFYADSVKGRFTISRDNAKNTVYLQMNSLKPEDTAVYYCGADAYGLTLFYVFSYDYWGQGTQVTVSS: high polyreactivity
- QVQLVESGGGLVQAGGSLRLSCAASGRIFYVNAMGWYRQAPGKERELVAAISGSGGRTYYADSVKGRFTISRDNAKNTVYLQMNSLKPEDTAVYYWNTQFRYPQKYDYWGQGTQVTVSS: high polyreactivity

Q. For the sequence "QVQLVESGGGLVQAGGSLRLSCAASGSIFSDYALGWYRQAPGKERELVAAITQSGGSTYADSVKGRFTISRDNAKNTVYLQMNSLIPEDTAVYYCAADEVPGFGYPPYPWFDYWGQGTQVTVSS" , what polyreactivity (PSR sort gate) is on record?
A. low polyreactivity

Q. For the sequence "QVQLQESGGLVQAGGSLRMSCAASGSISGRNVMGWYRQAPGKEREFVASITDGSSTNYADSVKGRFTISRDNAKNTLFLQMNSLKPKDTAVYYCAAYAQRGKSFGYWGRGTQVTVSS" , what polyreactivity (PSR sort gate) is on record?
A. low polyreactivity

Q. For the sequence "QVQLVESGGGLVQAGGSLRLSCAASGSTFSEYVMGWYRQAPGKQRELVAAIRSNGGSTYYADSVKGRFTISRDNAKNTVYLQMNSLKPEDTAVYYCNRVYSRRTYNSPLYDYWGQGTQVTVSS" , what polyreactivity (PSR sort gate) is on record?
A. high polyreactivity

Q. For the sequence "QVQLVESGGGLVQAGGSLRLSCAASGLIFYPYAMGWYRQAPGKERELVAAISSGGSTNYADSVKGRFTISRDNAKNTVYLQMNSLKPEDTAVYYCAKRYPSFRGYGSFRYSGRKYWGQGTQVTVSS" , what polyreactivity (PSR sort gate) is on record?
A. high polyreactivity

Q. For the sequence "QVQLVESGGGLVQAGGSLRLSCAASGRTFGWNAMGWYRQAPGKERELVAAITRGGITNYADSVKGRFTISRDNAKNTVYLQMNSLKPEDTAVYYCNKKFYRGASRYYYWGQGTQVTVSS" , what polyreactivity (PSR sort gate) is on record?
A. high polyreactivity

Q. For the sequence "QVQLVESGGGLVQAGGSLRLSCAASGSLFRSYAMGWYRQAPGKERELVAAISTRVVNTYYADSVKGRFTISRDNAKNTVYLQMNSLKPEDTAVYYCAALRYRITNVYYWGQGTQVTVSS" , what polyreactivity (PSR sort gate) is on record?
A. high polyreactivity
